Reference source for all entries: patent US9598401B2

For each record, write down the corresponding pKi.
pKi is defined as minus the log10 of a concentration measured in mol/L.

Here CCOC(=O)c1sc(N2CCN(CCCCc3c[nH]c4ccc(F)cc34)CC2)nc1C was tested on dopamine D2S receptor (Homo sapiens (Human), UniProt P14416), and its pKi came to 6.89

Here NC(=O)c1ccnc(N2CCN(CCCc3c[nH]c4ccc(F)cc34)CC2)n1 was tested on dopamine D2S receptor (Homo sapiens (Human), UniProt P14416), and its pKi came to 6.64

Here Cc1nc(N2CCN(CCCc3c[nH]c4ccc(F)cc34)CC2)sc1C(N)=O was tested on dopamine D2S receptor (Homo sapiens (Human), UniProt P14416), and its pKi came to 6.51

Here CCOC(=O)c1sc(N2CCN(CCCc3c[nH]c4ccc(F)cc34)CC2)nc1C was tested on dopamine D2S receptor (Homo sapiens (Human), UniProt P14416), and its pKi came to 6.57

Here Cc1nc(N2CCN(CCCCc3c[nH]c4ccc(C#N)cc34)CC2)sc1C#N was tested on dopamine D2S receptor (Homo sapiens (Human), UniProt P14416), and its pKi came to 6.89

Here COc1cc(OC)nc(N2CCN(CCCCc3c[nH]c4ccc(F)cc34)CC2)n1 was tested on dopamine D2S receptor (Homo sapiens (Human), UniProt P14416), and its pKi came to 6.96

Here Cc1nc(N2CCN(CCCCc3c[nH]c4ccc(F)cc34)CC2)sc1C(N)=O was tested on dopamine D2S receptor (Homo sapiens (Human), UniProt P14416), and its pKi came to 6.85

Here COc1cc(OC)nc(N2CCN(CCCc3c[nH]c4ccc(C#N)cc34)CC2)n1 was tested on dopamine D2S receptor (Homo sapiens (Human), UniProt P14416), and its pKi came to 6.70
